Data origin, for the record: patent US20230097157A1

Molecular target: human plasma kallikrein (Homo sapiens)
Sequence (P03952 391-638 limits assumed): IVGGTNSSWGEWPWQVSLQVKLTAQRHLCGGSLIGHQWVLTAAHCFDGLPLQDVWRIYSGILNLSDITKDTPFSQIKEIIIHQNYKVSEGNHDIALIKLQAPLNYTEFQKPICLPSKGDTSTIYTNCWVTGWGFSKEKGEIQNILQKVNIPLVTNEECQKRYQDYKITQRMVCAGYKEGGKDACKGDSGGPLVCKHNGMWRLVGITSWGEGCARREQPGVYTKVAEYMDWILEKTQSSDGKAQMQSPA
Sequence (P03952 20-390 partner limits assumed): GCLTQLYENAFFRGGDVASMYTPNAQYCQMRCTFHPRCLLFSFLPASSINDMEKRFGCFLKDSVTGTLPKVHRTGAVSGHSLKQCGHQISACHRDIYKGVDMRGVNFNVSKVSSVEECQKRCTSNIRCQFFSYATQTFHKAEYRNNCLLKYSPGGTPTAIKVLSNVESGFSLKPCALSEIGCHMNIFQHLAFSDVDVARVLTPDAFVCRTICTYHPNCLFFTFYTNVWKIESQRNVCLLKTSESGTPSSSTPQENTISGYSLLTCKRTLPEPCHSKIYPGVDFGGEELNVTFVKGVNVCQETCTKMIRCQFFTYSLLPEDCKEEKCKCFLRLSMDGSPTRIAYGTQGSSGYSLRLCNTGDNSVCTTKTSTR
Test: Kallikrein inhibition assay (FLINT) utilizing a quenched AMC peptide substrate Z-Gly-Pro-Arg-AMC
Type: biochemical
Conditions: kinetic (KIN) reads; values in nM; read-out: Kallikrein KIN Inh IC50
Metric: IC50
Dear colleague, please send the value followed by its unit.

Below, each entry is followed by its recorded IC50 result.
INSERT INTO results (compound, study_target, experimental_value) VALUES
  ('C[C@@H]1C[C@H](c2ncc(-c3ccc4nccn4c3)[nH]2)n2c1cc(-c1c(-n3cnnn3)ccc(Cl)c1F)cc2=O (stereo in doubt) [Example 49]', 'human plasma kallikrein (Homo sapiens)', '44.3 nM'),
  ('C[C@H]1C[C@@H](c2ncc(-c3ccc(NC(=O)C4CC4)nc3)[nH]2)n2c1nc(-c1c(-n3cnnn3)ccc(Cl)c1F)cc2=O (stereo in doubt) [Example 123]', 'human plasma kallikrein (Homo sapiens)', '17.5 nM');

Now for another entry.
stdin: What value of IC50 has been reported for the following compound? COc1nccc(-c2cnc([C@@H]3C[C@H](C)c4nc(-c5c(-n6cnnn6)ccc(Cl)c5F)cc(=O)n43)[nH]2)n1 (relative stereo) [Example 103]
stdout: 151 nM

* * *

Biological target: human plasma kallikrein (Homo sapiens)
Experiment: Kallikrein inhibition assay (FLINT) utilizing a quenched AMC peptide substrate Z-Gly-Pro-Arg-AMC
Assay type: biochemical
Details: kinetic (KIN) reads; unit μM; read-out: Kallikrein KIN Inh IC50
# reported IC50; entries follow

Below, each entry is followed by its recorded IC50 result.
INSERT INTO results (compound, experimental_value) VALUES
  ('Cc1cc(-c2cnc([C@@H]3C[C@@H](C)c4cc(-c5c(-n6cnnn6)ccc(Cl)c5F)cc(=O)n43)[nH]2)ccn1 (stereo in doubt) [Example 41]', '2.2 µM'),
  ('CC(O)c1nccc(-c2cnc([C@@H]3CC4(CC4)c4cc(-c5c(-n6cnnn6)ccc(Cl)c5F)cc(=O)n43)[nH]2)c1F (single isomer, unassigned) [Example 5]', '> 1 µM'),
  ('C[C@H]1C[C@@H](c2ncc(-c3cnc(N)c(F)c3)[nH]2)n2c1cc(-c1c(-n3cnnn3)ccc(Cl)c1F)cc2=O (relative stereo) [Example 61]', '> 10 µM');

stdin: What value of IC50 has been reported for the following compound? COc1cc(-c2cnc([C@@H]3C[C@H](C)c4nc(-c5c(-n6cnnn6)ccc(Cl)c5F)cc(=O)n43)[nH]2)ccn1 (stereo in doubt) [Example 97]
stdout: > 10 µM

stdin: What value of IC50 has been reported for the following compound? C[C@@H]1C[C@H](c2ncc(-c3ccnn3C)[nH]2)n2c1nc(-c1c(-n3cnnn3)ccc(Cl)c1F)cc2=O (stereo in doubt) [Example 143]
stdout: > 10 µM

stdin: What value of IC50 has been reported for the following compound? C[C@H]1C[C@@H](c2cnc(-c3ccc(N)nc3F)[nH]2)n2c1cc(-c1c(-n3cnnn3)ccc(Cl)c1F)cc2=O (stereo in doubt) [Example 54]
stdout: > 10 µM

stdin: What value of IC50 has been reported for the following compound? Cc1nc(N)cnc1-c1cnc([C@H]2CC(C)c3nc(-c4c(-n5cnnn5)ccc(Cl)c4F)cc(=O)n32)[nH]1 (some centres unmarked) [Example 96]
stdout: > 1 µM

stdin: What value of IC50 has been reported for the following compound? C[C@H]1C[C@H](c2ncc(-c3ccc(N)nc3Cl)[nH]2)n2c1cc(-c1c(-n3cnnn3)ccc(Cl)c1F)cc2=O (relative stereo) [Example 37]
stdout: 7.8 µM

stdin: What value of IC50 has been reported for the following compound? Cc1nc(N)c(F)cc1-c1cnc([C@H]2C[C@H](C)c3nc(-c4c(-n5cnnn5)ccc(Cl)c4F)cc(=O)n32)[nH]1 (relative stereo) [Example 129]
stdout: 1.6 µM

stdin: What value of IC50 has been reported for the following compound? C[C@H]1C[C@@H](c2ncc(-c3ccc(N)nc3F)[nH]2)n2c1cc(-c1cc(Cl)ccc1-n1cnnn1)cc2=O (single isomer, unassigned) [Example 36]
stdout: > 10 µM

stdin: What value of IC50 has been reported for the following compound? C[C@H]1C[C@@H](c2ncc(-c3cnnn3C)[nH]2)n2c1cc(-c1c(-n3cnnn3)ccc(Cl)c1F)cc2=O [Example 28]
stdout: 6.4 µM

stdin: What value of IC50 has been reported for the following compound? Nc1ccc(-c2cnc([C@@H]3CC4(CC4)c4cc(-c5cc(Cl)ccc5-n5cnnn5)cc(=O)n43)[nH]2)c(F)n1 (single isomer, unassigned) [Example 4]
stdout: > 1 µM

stdin: What value of IC50 has been reported for the following compound? C[C@H]1C[C@@H](c2ncc(-c3ccc(N)nc3F)[nH]2)n2c1cc(-c1c(-n3cnnn3)ccc(Cl)c1F)cc2=O (stereo in doubt) [Example 68]
stdout: > 10 µM

stdin: What value of IC50 has been reported for the following compound? C[C@H]1C[C@@H](c2ncc(-c3ccc4nccn4c3)[nH]2)n2c1cc(-c1c(-n3cnnn3)ccc(Cl)c1F)cc2=O (stereo in doubt) [Example 48]
stdout: > 10 µM
